Tested on: L1210/0 leukemia cells
Assay: In vivo anti-tumor activity, L1210 (L1210/0), multiple i.p. doses
Parameters: species or system BDF1 mice
Conditions: 25 mg/kg, days 1,5,9
Mark each entry Criterion met if its % T/C sits below 200%, and Criterion not met for all others.

INSERT INTO results (compound, class) VALUES
  ('NC1CCCCC1N.O.O.O=C([O-])C1=CC(O)C(O)C(O)C1.O=C([O-])C1=CC(O)C(O)C(O)C1.[Pt+2] (stereo not drawn) [Compound 10, cis-bis-shikimato(DACH)Pt(II).2H2 O]', 'Criterion met'),
  ('NC1CCCCC1N.O=C1OC(C(O)CO)C([O-])=C1O.O=C1OC(C(O)CO)C([O-])=C1O.[Pt+2] (mixture of isomers) [Compound 7, cis-bis-isoascorbato(DACH)Pt(II).3H2 O]', 'Criterion met'),
  ('N[C@@H]1CCCC[C@H]1N.O=C1O[C@H]([C@@H](O)CO)C([O-])=C1O.O=C1O[C@H]([C@@H](O)CO)C([O-])=C1O.[Pt+2] [Compound 4]', 'Criterion not met'),
  ('NC1CCCCC1N.O.O=C1OC(C(O)CO)C([O-])=C1O.O=C1OC(C(O)CO)C([O-])=C1O.[Pt+2] (stereo not drawn) [Compound 3, cis-bis-ascorbato(DACH)Pt(II).1H2 O]', 'Criterion met');

Now examine the next entry.
Request: Confirm or reject: % T/C of NC1CCCCC1N.O.O=C1CC(C(=O)[O-])C(C(=O)[O-])O1.[Pt+2] (racemic) [Compound 12, DL-isocitratolactone(DACH)Pt(II).1H2 O] lies strictly below 200%
Response: Criterion not met
